TEST SYSTEM: T1, human IL-33 (mm2) (human, UniProt O95760 112-270)
T1 chain: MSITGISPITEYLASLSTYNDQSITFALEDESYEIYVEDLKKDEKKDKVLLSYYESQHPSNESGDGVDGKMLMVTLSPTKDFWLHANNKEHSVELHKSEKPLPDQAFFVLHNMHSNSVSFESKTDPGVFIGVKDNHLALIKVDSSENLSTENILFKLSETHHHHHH
PROTOCOL NOTES: cell-based or functional assay
READOUT: IC50, whole blood mm2 (pM)
Give just the number in pM; leave the unit off.

Req: Which value of IC50, whole blood mm2 has been reported for IL33-154 (antibody, human IgG1, kappa, V domains shown) VH: EVQLVESGGGLVQPGGSLRLSCAASGFTFSSYWMYWVRQAPGKGLEWVASITPNAGEDYYPESVKGRFTISRDNAKNSLYLQMNSLRAEDTAVYYCARGHYYYTSYSLGYWGQGTLVTVSS VL: DIQMTQSPSSLSASVGDRVTITCKASQNINKHLDWYQQKPGKAPKLLIYFTNNLQTGVPSRFSGSGSGTDFTLTISSLQPEDFATYYCFQYNQGWTFGGGTKVEIKR in the records?
Resp: 10

Req: Again, but for IL33-175 (antibody, human IgG1, kappa, V domains shown) VH: EVQLVESGGGLVQPGGSLRLSCAASGFTFSSYWMYWVRQAPGKGLEWVAAITPNAGETYYPESVKGRFTISRDNAKNSLYLQMNSLRAEDTAVYYCARGHYYYTSYSLGYWGQGTLVTVSS VL: DIQMTQSPSSLSASVGDRVTITCKASQNINKHLDWYQQKPGKAPKLLIYFTNNLQTGVPSRFSGSGSGTDFTLTISSLQPEDFATYYCFQYNNGWTFGGGTKVEIKR
Resp: 6

Req: Again, but for IL33-187 (antibody, human IgG1, kappa, V domains shown) VH: EVQLVESGGGLVQPGGSLRLSCAASGFTFSSYWMYWVRQAPGKGLEWVAAITPNAGETYYPDSVKGRFTISRDNAKNSLYLQMNSLRAEDTAVYYCARGHYYYTSYSLGYWGQGTLVTVSS VL: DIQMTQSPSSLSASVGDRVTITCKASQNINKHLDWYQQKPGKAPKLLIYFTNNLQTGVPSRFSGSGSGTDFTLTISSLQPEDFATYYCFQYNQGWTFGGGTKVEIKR
Resp: 6
